TEST TARGET: KRas^G12R (Homo sapiens, UniProt P01116, G12R)
Construct: […]; biotin (biotinylated)
Sequence (P01116 1-169 isoform P01116-2 G12R): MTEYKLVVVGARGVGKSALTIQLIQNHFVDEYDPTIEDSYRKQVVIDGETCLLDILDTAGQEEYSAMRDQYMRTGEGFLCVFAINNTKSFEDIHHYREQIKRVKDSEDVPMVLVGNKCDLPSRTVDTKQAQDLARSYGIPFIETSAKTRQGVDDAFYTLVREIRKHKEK
ASSAY: KRas binding assay (TR-FRET displacement of Cy5 labelled tracer)
Catalogue of log10(IC50) readings, one per entry.
Annotation: log10 of IC50, nM basis.

COMPOUND	ENDPOINT RESULT
CCc1cccc2cccc(N3CCc4c(nc(OCC56CCCN5CCC6)nc4N4CCCC(c5nnc(CO)n5C)C4)C3)c12 (stereo not shown)	3.67
CCc1cccc2cccc(N3CCc4c(nc(OCC56CCCN5CCC6)nc4NCc4cccnc4-n4cncn4)C3)c12	3.24
CCc1cccc2cccc(N3CCc4c(nc(OCC56CCCN5CCC6)nc4N4CC5CC(O)CC4C5)C3)c12 (stereo not shown)	2.39

Form field log10(IC50), entry `CCc1c(F)ccc2cc(O)cc(N3CCc4c(nc(OC[C@@]56CCCN5C[C@H](F)C6)nc4N4C[C@H]5C[C@H](O)C[C@H]5C4)C3)c12` : 1.36

Entry under test: O=C1NC(=O)C2CN(c3nc(OCC45CCCN4CCC5)nc4c3CCN(c3cccc5cccc(F)c35)C4)CC12 (stereo not shown) . Its log10(IC50) was 3.60

Entry `CCc1cccc2cccc(N3CCc4c(nc(OCC56CCCN5CCC6)nc4N4CCN(c5ccncn5)CC4)C3)c12` , log10(IC50) reported as 3.90

Lookup result for CCc1cccc2cccc(N3CCc4c(nc(OCC56CCCN5CCC6)nc4N4CCCC(c5ccno5)C4)C3)c12 (stereo not shown) ; measured log10(IC50): 2.53

---

TEST TARGET: KRas^G12C (Homo sapiens, UniProt P01116, G12C)
Sequence (P01116 1-169 isoform P01116-2 G12C): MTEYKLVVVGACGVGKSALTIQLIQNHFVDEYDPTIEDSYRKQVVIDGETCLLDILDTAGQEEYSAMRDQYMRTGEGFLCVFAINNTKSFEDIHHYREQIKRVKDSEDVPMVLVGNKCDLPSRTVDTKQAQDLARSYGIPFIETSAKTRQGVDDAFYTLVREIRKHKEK
ASSAY: biochemical
pIC50 by entry:
pIC50 here is simply -log10 of the concentration when that concentration is written in mol/L.

Use the examples below as a reference point.
MOLECULE	pIC50
CCc1cccc2cccc(N3CCc4c(nc(OCC56CCCN5CCC6)nc4N(C)CC4(O)CC4)C3)c12 [Example 98]	6.48
CCc1cccc2cccc(N3CCc4c(nc(OCC56CCCN5CCC6)nc4NC4CCNC(=O)C4)C3)c12 (stereo not shown) [Example 153]	5.46
CCc1cccc2cccc(N3CCc4c(nc(OCC56CCCN5CCC6)nc4N4CCC(O)C(CO)C4)C3)c12 (stereo not shown) [Example 109]	6.34

Now look at this one.
Short answer for CCc1cccc2cccc(N3CCc4c(nc(OCC56CCCN5CCC6)nc4N4C[C@@H]5C(=O)NC(=O)[C@@H]5C4)C3)c12 [Example 11] : pIC50 was 7.39

---

TEST TARGET: KRas^G12A (Homo sapiens, UniProt P01116, G12A)
Construct: […]; biotin (biotinylated)
Sequence (P01116 1-169 isoform P01116-2 G12A): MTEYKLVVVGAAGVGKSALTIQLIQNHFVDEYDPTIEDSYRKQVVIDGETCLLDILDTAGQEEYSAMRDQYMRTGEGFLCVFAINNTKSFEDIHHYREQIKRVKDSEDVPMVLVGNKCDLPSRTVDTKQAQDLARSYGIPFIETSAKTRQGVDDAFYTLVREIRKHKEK
ASSAY: KRas binding assay (TR-FRET displacement of Cy5 labelled tracer)
ENDPOINT: log10 of IC50 (log10 of the value in nM)
Values reflect log10 of reported IC50 (nM).

Some compounds with known log10 of IC50 results, for comparison:
COMPOUND	ENDPOINT RESULT
CCc1cccc2cccc(N3CCc4c(nc(OCC56CCCN5CCC6)nc4N4CCOCC(C)(O)C4)C3)c12 (centres unmarked)	1.97
CCc1cccc2cccc(N3CCc4c(nc(OCC56CCCN5CCC6)nc4N4C[C@@H]5C(=O)NC(=O)[C@@H]5C4)C3)c12	1.65
CCc1cccc2cccc(N3CCc4c(nc(OCC56CCCN5CCC6)nc4N4CCCN(C(=O)c5ccco5)CC4)C3)c12	2.91

Just so you know, measured log10 of IC50 for `CCc1cccc2cccc(N3CCc4c(nc(OCC56CCCN5CCC6)nc4Nc4cnn(CC(N)=O)c4)C3)c12` came out at 3.40

log10 of IC50 reading for CCc1cccc2cccc(N3CCc4c(nc(OCC56CCCN5CCC6)nc4N4CCCC(CO)CC4)C3)c12 (centres unmarked) : 2.63

Per the record, `CCc1cccc2cccc(N3CCc4c(nc(OCC56CCCN5CCC6)nc4NCCNS(N)(=O)=O)C3)c12` has log10 of IC50 of 3.97

Looking up `CCc1cccc2cccc(N3CCc4c(nc(OCC56CCCN5CCC6)nc4N4C[C@@H](C)C[C@@H](O)C4)C3)c12` , I see its log10 of IC50 listed as 2.64

So for `CCc1cccc2cccc(N3CCc4c(nc(OCC56CCCN5CCC6)nc4NCc4ccc5nncn5c4)C3)c12` , the logged log10 of IC50 turned out to be 2.63

Measured log10 of IC50, CCc1cccc2cccc(N3CCc4c(nc(OCC56CCCN5CCC6)nc4N4CCCC(c5nc(C)c(C(=O)NC6CCC6)o5)C4)C3)c12 (centres unmarked) : 3.22

So, CCc1cccc2cccc(N3CCc4c(nc(OCC56CCCN5CCC6)nc4N4CCCC(O)(C(F)F)C4)C3)c12 (centres unmarked) ? Its log10 of IC50 was 2.31

In plain terms, CCc1cccc2cccc(N3CCc4c(nc(OCC56CCCN5CCC6)nc4N4CCCC(N5CCCC5=O)C4)C3)c12 (centres unmarked) has a documented log10 of IC50 of 2.98

For this compound ( `CCc1cccc2cccc(N3CCc4c(nc(OCC56CCCN5CCC6)nc4N(C)Cc4c[nH]nn4)C3)c12` ), measured log10 of IC50 is 3.32

Measured log10 of IC50, CCc1c(F)ccc2cc(O)cc(N3CCc4c(nc(OC[C@@]56CCCN5C[C@H](F)C6)nc4N4CCC(c5[nH]ncc5N)C4)C3)c12 (some centres unmarked) : 0.85

Note to self: log10 of IC50 recorded for CCc1cccc2cccc(N3CCc4c(nc(OCC56CCCN5CCC6)nc4N4CCCC(c5cc(=O)[nH][nH]5)C4)C3)c12 (centres unmarked) was 3.06
